- TEST DETAILS: Clearance in dog at 3 mg/kg, iv
- Type: ADME, organism-based, Canis lupus familiaris
- CONDITIONS USED: in vivo
OBSERVABLE: clearance (mL/min/kg)
Answers are plain numbers, in mL/min/kg.

q: Which clearance value belongs to `O=C(NCCN1CCOCC1)Nc1nc2ccc(Sc3nnc4ccc(-c5ccc(F)cc5)nn34)cc2s1` ?
a: 8.33

###

- TEST DETAILS: Lipophilicity, log D of the compound by HPLC method
- Format: physicochemical
OBSERVABLE: logD

Known logD results, listed for orientation:
CCNc1nc2ccc(Sc3nnc4ccc(-c5ccc(F)cc5)nn34)cc2s1 ... > 4.6
Fc1ccc(-c2ccc3nnc(Sc4ccc5nc(NCCN6CCOCC6)sc5c4)n3n2)cc1 ... 4.1

Attention now shifts to the item below.
q: # query: logD of entry `COC(=O)Nc1nc2ccc(Sc3nnc4ccc(-c5ccc(F)cc5)nn34)cc2s1`
a: > 4.6
